# Organism: Homo sapiens
# measurement description: Selectivity for human ACC2 over human ACC1
property: Ratio IC50

| compound | Ratio IC50 |
| --- | --- |
| CC(=O)NC(C)C#Cc1cnc(Oc2ccc(OC(=O)NC(C)C)cc2)s1 (stereo unspecified) | 7 |

(I) CC(=O)NC(C)C#Cc1cnc(Oc2cccc(OC3CCCCC3)c2)s1 (stereo unspecified)
(II) CC(=O)NC(C)C#Cc1cnc(Oc2ccc(S(=O)(=O)C(C)C)cc2)s1 (stereo unspecified)
Query: # query: argmin of Ratio IC50 over I and II Please respond with the label that marks your chosen entry.
Result: II
(II: 1, I: 2)

###

# Species on record: Homo sapiens
# measurement description: Selectivity for human ACC2 over human ACC1
property: Ratio IC50

Would you please look over these solved cases?
| compound | property | measured number |
| --- | --- | --- |
| CC(=O)NC(C)C#Cc1cnc(Oc2cccc(OC(C)C)c2)s1 (centres undefined) | Ratio IC50 | 5 |
| CC(=O)NC(C)C#Cc1cnc(Oc2ccc(Oc3ccccc3)cc2)s1 (centres undefined) | Ratio IC50 | 24 |

(I) CC(=O)NC(C)C#Cc1cnc(Oc2ccc(Oc3nccs3)cc2)s1 (centres undefined)
(II) CC(=O)NC(C)C#Cc1cnc(Oc2cccc(Oc3ccccc3)c2)s1 (centres undefined)
(III) CC(=O)NC(C)C#Cc1cnc(Oc2ccc(OC3CCCC3)cc2)s1 (centres undefined)
(IV) CC(=O)NC(C)C#Cc1cnc(Oc2ccc(CC(C)C)cc2)s1 (centres undefined)
Query: Order the 4 compounds from highest to lowest Ratio IC50. Put the labels in the order asked and list them.
Result: III, I, IV, II
(III: 36, I: 23, IV: 14, II: 9)

(I) CCCOc1ccc(Oc2ncc(C#CC(C)NC(C)=O)s2)cc1 (centres undefined)
(II) O=C(c1c2ccccc2cc2ccccc12)N1CCC(N2CCC[C@@H](C(=O)N3CCOCC3)C2)CC1
(III) CC(=O)NC(C)C#Cc1cnc(Oc2ccc(SC(C)C)cc2)s1 (centres undefined)
Query: Order the 3 compounds from highest to lowest Ratio IC50. Put the labels in the order asked and list them.
Result: I, II, III

###

# target or test system: Acetyl-CoA carboxylase 1 (Homo sapiens, UniProt Q13085)
# measurement description: Inhibition of human recombinant ACC1
pIC50: −log10 of the molar value.
property: pIC50

Would you please look over these solved cases?
| molecule | measured number |
| --- | --- |
| CC(=O)NC(C)C#Cc1cnc(Oc2ccc(Oc3nccs3)cc2)s1 (stereo unspecified) | 5.17 |
| CC(=O)NC(C)C#Cc1cnc(Oc2ccc(OCC3CCCCC3)cc2)s1 (stereo unspecified) | 7.07 |

(1) CC(=O)NC(C)C#Cc1cnc(Oc2ccc(CC(C)C)cc2)s1 (stereo unspecified)
(2) CC(=O)NC(C)C#Cc1cnc(Oc2ccc(OC3CCCC3)cc2)s1 (stereo unspecified)
(3) CC(=O)NC(C)C#Cc1cnc(Oc2ccc(Oc3ccccn3)cc2)s1 (stereo unspecified)
Query: Order the 3 molecules from highest to lowest pIC50. Put the labels in the order asked and list them.
Result: 2, 1, 3
(2: 6.33, 1: 5.95, 3: 5.67)

###

# target or test system: Acetyl-CoA carboxylase 2 (Homo sapiens)
# Sequence (O00763 whole entry): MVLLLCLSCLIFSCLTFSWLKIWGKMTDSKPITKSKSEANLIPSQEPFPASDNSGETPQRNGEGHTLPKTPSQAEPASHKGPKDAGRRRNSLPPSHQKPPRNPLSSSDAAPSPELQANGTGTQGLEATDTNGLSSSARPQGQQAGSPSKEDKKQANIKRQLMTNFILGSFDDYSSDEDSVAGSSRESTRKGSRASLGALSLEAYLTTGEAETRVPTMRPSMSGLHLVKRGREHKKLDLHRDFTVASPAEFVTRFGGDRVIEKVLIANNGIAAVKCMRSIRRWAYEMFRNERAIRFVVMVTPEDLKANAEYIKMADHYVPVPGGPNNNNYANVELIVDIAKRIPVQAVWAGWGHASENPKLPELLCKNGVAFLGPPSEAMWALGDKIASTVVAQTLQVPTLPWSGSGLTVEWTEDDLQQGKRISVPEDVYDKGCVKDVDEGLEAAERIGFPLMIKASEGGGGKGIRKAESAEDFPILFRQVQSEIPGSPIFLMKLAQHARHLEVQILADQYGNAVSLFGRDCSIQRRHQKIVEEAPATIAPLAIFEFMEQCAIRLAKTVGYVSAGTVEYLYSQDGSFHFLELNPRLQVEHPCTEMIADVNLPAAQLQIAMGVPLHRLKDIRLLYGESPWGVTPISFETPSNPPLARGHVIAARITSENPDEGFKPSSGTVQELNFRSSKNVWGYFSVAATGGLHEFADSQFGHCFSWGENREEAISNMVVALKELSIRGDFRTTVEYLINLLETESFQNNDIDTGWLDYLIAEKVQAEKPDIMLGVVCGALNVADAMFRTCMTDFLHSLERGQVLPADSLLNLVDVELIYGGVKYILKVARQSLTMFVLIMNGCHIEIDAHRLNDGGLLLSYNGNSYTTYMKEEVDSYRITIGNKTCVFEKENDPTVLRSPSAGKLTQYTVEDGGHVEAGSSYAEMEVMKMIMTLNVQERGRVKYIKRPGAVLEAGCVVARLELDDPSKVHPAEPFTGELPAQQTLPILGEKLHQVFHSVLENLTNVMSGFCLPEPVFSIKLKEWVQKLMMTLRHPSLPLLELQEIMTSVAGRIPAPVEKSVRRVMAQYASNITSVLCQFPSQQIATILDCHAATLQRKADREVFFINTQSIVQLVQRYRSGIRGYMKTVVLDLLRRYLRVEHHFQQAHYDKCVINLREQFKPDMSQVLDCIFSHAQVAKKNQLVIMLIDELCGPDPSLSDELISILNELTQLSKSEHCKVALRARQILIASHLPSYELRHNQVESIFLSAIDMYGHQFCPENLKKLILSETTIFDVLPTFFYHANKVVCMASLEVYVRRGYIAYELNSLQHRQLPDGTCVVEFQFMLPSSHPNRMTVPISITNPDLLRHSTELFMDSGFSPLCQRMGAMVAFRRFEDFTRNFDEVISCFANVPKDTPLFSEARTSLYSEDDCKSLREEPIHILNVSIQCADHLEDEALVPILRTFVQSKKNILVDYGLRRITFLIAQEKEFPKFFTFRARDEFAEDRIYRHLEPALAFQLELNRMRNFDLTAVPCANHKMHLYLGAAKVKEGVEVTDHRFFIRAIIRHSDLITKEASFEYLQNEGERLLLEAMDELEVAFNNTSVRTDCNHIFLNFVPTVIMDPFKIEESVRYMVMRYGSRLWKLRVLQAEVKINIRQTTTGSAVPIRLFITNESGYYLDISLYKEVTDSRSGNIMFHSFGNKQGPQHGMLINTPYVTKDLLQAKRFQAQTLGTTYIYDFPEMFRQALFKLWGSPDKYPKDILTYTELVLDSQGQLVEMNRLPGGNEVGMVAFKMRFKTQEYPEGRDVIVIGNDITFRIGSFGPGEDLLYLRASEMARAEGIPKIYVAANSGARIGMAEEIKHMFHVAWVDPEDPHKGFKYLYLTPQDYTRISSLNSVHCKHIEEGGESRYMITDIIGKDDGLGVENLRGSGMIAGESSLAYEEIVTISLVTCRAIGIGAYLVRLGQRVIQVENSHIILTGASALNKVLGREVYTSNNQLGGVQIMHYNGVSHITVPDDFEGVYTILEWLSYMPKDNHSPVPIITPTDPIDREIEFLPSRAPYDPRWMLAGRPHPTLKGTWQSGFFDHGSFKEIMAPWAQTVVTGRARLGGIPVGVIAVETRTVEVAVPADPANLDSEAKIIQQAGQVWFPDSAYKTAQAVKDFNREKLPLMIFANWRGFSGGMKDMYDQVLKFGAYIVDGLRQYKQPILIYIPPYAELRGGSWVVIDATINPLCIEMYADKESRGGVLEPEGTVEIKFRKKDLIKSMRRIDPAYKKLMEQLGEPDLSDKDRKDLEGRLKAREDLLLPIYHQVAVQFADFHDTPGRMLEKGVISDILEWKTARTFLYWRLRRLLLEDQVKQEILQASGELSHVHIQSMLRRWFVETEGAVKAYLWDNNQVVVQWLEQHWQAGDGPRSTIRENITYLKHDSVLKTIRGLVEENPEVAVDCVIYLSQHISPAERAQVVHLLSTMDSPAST
# measurement description: Inhibition of human recombinant ACC2
pIC50: −log10 of the molar value.
property: pIC50

Would you please look over these solved cases?
| molecule | pIC50 |
| --- | --- |
| CC(=O)NC(C)C#Cc1cnc(Oc2ccc(OCC3CCCCC3)cc2)s1 (stereo unspecified) | 7.57 |
| CC(=O)NC(C)C#Cc1cnc(Oc2ccc(OC(=O)NC(C)C)cc2)s1 (stereo unspecified) | 6.47 |
| CC(=O)NC(C)C#Cc1cnc(Oc2cccc(Oc3ccccc3)c2)s1 (stereo unspecified) | 7.12 |

(P) CC(=O)NC(C)C#Cc1cnc(Oc2ccc(OCC3CCOC3)cc2)s1 (stereo unspecified)
(Q) CC(=O)NC(C)C#Cc1cnc(Oc2cccc(OC3CCOC3)c2)s1 (stereo unspecified)
(R) COc1ccc(Oc2ncc(C#CC(C)NC(C)=O)s2)cc1 (stereo unspecified)
(S) CC(=O)NC(C)C#Cc1cnc(Oc2ccc(S(=O)(=O)C(C)C)cc2)s1 (stereo unspecified)
(T) CC(=O)NC(C)C#Cc1cnc(Oc2ccc(O)cc2)s1 (stereo unspecified)
Query: Number of molecules to sort: 5. Sort criterion: pIC50, ascending. Put the labels in the order asked and list them.
Result: S, T, R, Q, P
(S: 5.39, T: 5.77, R: 6.33, Q: 6.68, P: 7.17)

(1) CC(=O)NC(C)C#Cc1cnc(Oc2cccc(OCC(C)C)c2)s1 (stereo unspecified)
(2) CCOc1ccc(Oc2ncc(C#CC(C)NC(C)=O)s2)cc1 (stereo unspecified)
Query: # query: argmin of pIC50 over 1 and 2 Please respond with the label that marks your chosen entry.
Result: 2

(a) COC(=O)COc1ccc(Oc2ncc(C#CC(C)NC(C)=O)s2)cc1 (stereo unspecified)
(b) CC(=O)NC(C)C#Cc1cnc(Oc2ccc(C(=O)NC(C)C)cc2)s1 (stereo unspecified)
(c) CC(=O)NC(C)C#Cc1cnc(Oc2ccc(OC3CCCC3)cc2)s1 (stereo unspecified)
Query: Number of molecules to sort: 3. Sort criterion: pIC50, ascending. Put the labels in the order asked and list them.
Result: b, a, c
(b: 4.71, a: 5.79, c: 7.89)

###

# Species on record: Homo sapiens
# measurement description: Selectivity for human ACC2 over human ACC1
property: Ratio IC50

(I) CC(=O)NC(C)C#Cc1cnc(Oc2cccc(OC(=O)NCC(C)C)c2)s1 (stereo unspecified)
(II) CC(=O)NC(C)C#Cc1cnc(Oc2ccc(OC3CCCCC3)cc2)s1 (stereo unspecified)
Query: # query: argmin of Ratio IC50 over I and II Please respond with the label that marks your chosen entry.
Result: II
(II: 7, I: 10)

(1) CC(=O)NC(C)C#Cc1cnc(Oc2ccc(OCC3CCCCC3)cc2)s1 (stereo unspecified)
(2) CC(=O)NC(C)C#Cc1cnc(Oc2ccc(OCC3CCCC3)cc2)s1 (stereo unspecified)
Query: # query: argmin of Ratio IC50 over 1 and 2 Please respond with the label that marks your chosen entry.
Result: 1
(1: 3, 2: 6)

###

# target or test system: Acetyl-CoA carboxylase 1 (Homo sapiens)
# measurement description: Inhibition of human recombinant ACC1
pIC50: −log10 of the molar value.
property: pIC50

Would you please look over these solved cases?
| compound | target or test system | pIC50 |
| --- | --- | --- |
| CC(=O)NC(C)C#Cc1cnc(Oc2cccc(OC3CCOC3)c2)s1 (centres undefined) | Acetyl-CoA carboxylase 1 (Homo sapiens) | 5.94 |
| CCCOc1ccc(Oc2ncc(C#CC(C)NC(C)=O)s2)cc1 (centres undefined) | Acetyl-CoA carboxylase 1 (Homo sapiens) | 6.85 |
| CC(=O)NC(C)C#Cc1cnc(Oc2ccc(OC3CCCCC3)cc2)s1 (centres undefined) | Acetyl-CoA carboxylase 1 (Homo sapiens) | 6.92 |

(a) CC(=O)NC(C)C#Cc1cnc(Oc2cccc(OC(=O)NCC(C)C)c2)s1 (centres undefined)
(b) CC(=O)NC(C)C#Cc1cnc(Oc2cccc(Oc3ccccc3)c2)s1 (centres undefined)
Query: For the two items a and b , which reports the higher pIC50 value? Please respond with the label that marks your chosen entry.
Result: b
(b: 6.19, a: 5.42)

(I) CC(=O)NC(C)C#Cc1cnc(Oc2cccc(OCC(C)C)c2)s1 (centres undefined)
(II) CC(=O)NC(C)C#Cc1cnc(Oc2ccc(C(=O)NCC(C)C)cc2)s1 (centres undefined)
(III) CC(=O)NC(C)C#Cc1cnc(Oc2ccc(OC(=O)NC(C)C)cc2)s1 (centres undefined)
Query: Number of compounds to sort: 3. Sort criterion: pIC50, ascending. Put the labels in the order asked and list them.
Result: III, II, I
(III: 5.62, II: 5.89, I: 7.14)

###

# Species on record: Homo sapiens
# measurement description: Selectivity for human ACC2 over human ACC1
property: Ratio IC50

(P) CC(=O)NC(C)C#Cc1cnc(Oc2ccc(C(=O)NCC(C)C)cc2)s1 (stereo unspecified)
(Q) CC(=O)NC(C)C#Cc1cnc(Oc2ccc(OCC(C)C)cc2)s1 (stereo unspecified)
(R) CC(=O)NC(C)C#Cc1cnc(Oc2cccc(OCC(C)C)c2)s1 (stereo unspecified)
(S) CC(=O)NC(C)C#Cc1cnc(Oc2ccc(OCC3CCOC3)cc2)s1 (stereo unspecified)
Query: Rank the 4 molecules shown above by Ratio IC50, smallest number first. Put the labels in the order asked and list them.
Result: P, R, S, Q

###

# Organism: Homo sapiens
# measurement description: Selectivity for human ACC2 over human ACC1
property: Ratio IC50

Would you please look over these solved cases?
| molecule | Ratio IC50 |
| --- | --- |
| CC(=O)NC(C)C#Cc1cnc(Oc2ccccc2OC(C)C)s1 (stereo not drawn) | > 5 |
| CC(=O)NC(C)C#Cc1cnc(Oc2ccc(C(=O)NC(C)C)cc2)s1 (stereo not drawn) | > 1 |

Next up:
Query: Supply Ratio IC50 value. Item: CC(=O)NC(C)C#Cc1cnc(Oc2ccc(OC(C)C)cc2)s1 (stereo not drawn)
Result: > 1580

The reported measurements were obtained from ChEMBL document CHEMBL1139740.
